subject of test: TNFα trimer (Homo sapiens)
Sequence (P01375 77-233 limits assumed): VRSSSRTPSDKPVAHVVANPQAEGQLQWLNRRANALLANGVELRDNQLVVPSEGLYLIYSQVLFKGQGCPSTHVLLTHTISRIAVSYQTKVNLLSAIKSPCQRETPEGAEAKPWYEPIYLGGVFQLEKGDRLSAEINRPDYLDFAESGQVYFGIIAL
measurement protocol: TNFα FP Competitive Binding Assay
stated conditions: Table BO; read-out: TNF IC50
Protocol: TNFα FP Competitive Binding Assay • 1. […] • 1. […] Prior to reading the assay, the plates are placed in a dark cabinet to equilibrate at rt for one hour. • 9. Background-subtracted fluorescence polarization (mP) is measured using a PerkinElmer Envision plate reader. • 10. […]
Measured IC50 accompanies every entry in the list below.

| compound | IC50 |
| --- | --- |
| O=C1NC[C@@H]2CN(c3ncc(-c4ccc5nc6n(c5n4)C4(COCc5ccccc54)COC6)cn3)CCN12 (some centres unmarked) | < 1000 nM |

Continue with the compound presented below.
[in] Which IC50 value belongs to OC1CCN(c2ncc(-c3ccc4nc5n(c4n3)C3(COCc4ccccc43)COC5)cn2)CC1 (centres unmarked) ?
[out] 1000 to 10000 nM

Source of measurements: patent US20180179198A1
